tested on: MCF10; assay: Cytotoxicity against human MCF10 cells; format: cell-based
pIC50: −log10 of the molar value.
The following compounds are shown together with reported pIC50 values.

{"columns": ["Compound", "Measurement Target", "pIC50"],
 "data": [
  ["CCc1nc(N)nc(N)c1C#CC(C)c1ccc(-c2ccc(F)cc2)cc1OC (stereo not given)", "MCF10", 4.22],
  ["COc1cc(-c2ccccc2)ccc1C(C)C#Cc1c(C)nc(N)nc1N (stereo not given)", "MCF10", 4.13],
  ["CCc1nc(N)nc(N)c1C#CC(C)c1ccc(-c2ccc(C#N)cc2)cc1OC (stereo not given)", "MCF10", 4.30],
  ["CCc1nc(N)nc(N)c1C#CC(C)c1cnc(-c2ccccc2)nc1 (stereo not given)", "MCF10", 3.67],
  ["CCc1nc(N)nc(N)c1C#CC(C)c1ccc(-c2ccncc2)cc1OC (stereo not given)", "MCF10", 3.67]
]}

----------
Molecular target: UniProt:P22906
Sequence (P22906 whole entry): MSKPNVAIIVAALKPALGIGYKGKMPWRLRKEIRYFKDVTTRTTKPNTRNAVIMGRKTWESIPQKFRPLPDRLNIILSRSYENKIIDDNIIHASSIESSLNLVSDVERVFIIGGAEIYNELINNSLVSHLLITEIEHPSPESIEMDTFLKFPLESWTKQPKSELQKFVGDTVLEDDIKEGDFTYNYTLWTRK
pIC50: −log10 of the molar value.

{"columns": ["Molecule", "Measurement Target", "pIC50"],
 "data": [
  ["CCc1nc(N)nc(N)c1C#CC(C)c1ccc(-c2ccccc2)cc1 (configuration not stated)", "UniProt:P22906", 7.64],
  ["CCc1nc(N)nc(N)c1C#CC(C)c1ccc(-c2ccncc2)cc1OC (configuration not stated)", "UniProt:P22906", 7.48],
  ["CCc1nc(N)nc(N)c1C#CC(C)c1ccc(-c2ccc(C)cc2)cc1OC (configuration not stated)", "UniProt:P22906", 7.32],
  ["COc1cc(-c2ccccc2)ccc1C(C)C#Cc1c(C)nc(N)nc1N (configuration not stated)", "UniProt:P22906", 7.70],
  ["CCc1nc(N)nc(N)c1C#CC(C)c1ccc(-c2ccccc2)cc1OC (configuration not stated)", "UniProt:P22906", 7.31],
  ["COc1cc(C(C)C#Cc2c(C)nc(N)nc2N)c(OC)cc1-c1ccccc1 (configuration not stated)", "UniProt:P22906", 7.44],
  ["CCc1nc(N)nc(N)c1C#CC(C)c1ccc(-c2ccc(F)cc2)cc1OC (configuration not stated)", "UniProt:P22906", 7.37]
]}

----------
The following compounds are shown together with reported solubility kinetic at 0.5 h values.
assay: Kinetic solubility of the compound in water after 30 mins by HPLC analysis; assay type: physicochemical; conditions: read-out: Kinetic_solubility

{"columns": ["Compound", "solubility kinetic at 0.5 h"],
 "data": [
  ["CCc1nc(N)nc(N)c1C#CC(C)c1ccc(-c2ccccc2)nc1 (stereo not drawn)", "20 µg/mL"],
  ["CCc1nc(N)nc(N)c1C#CC(C)c1ccc(-c2ccc(C)cc2)nc1 (stereo not drawn)", "15 µg/mL"],
  ["CCc1nc(N)nc(N)c1C#CC(C)c1cnc(-c2ccccc2)nc1 (stereo not drawn)", "60 µg/mL"]
]}

----------
Target protein (sequence): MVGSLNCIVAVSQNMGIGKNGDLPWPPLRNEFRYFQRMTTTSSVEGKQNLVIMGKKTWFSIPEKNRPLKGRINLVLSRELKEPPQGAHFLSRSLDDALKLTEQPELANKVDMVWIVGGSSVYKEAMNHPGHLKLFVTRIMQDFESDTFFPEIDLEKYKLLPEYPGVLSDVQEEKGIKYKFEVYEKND
The following compounds are shown together with reported IC50 values.

{"columns": ["Compound", "IC50"],
 "data": [
  ["CCc1nc(N)nc(N)c1C#CC(C)c1ccc(-c2ccccc2)cc1 (centres undefined)", "0.174 µM"],
  ["COc1cc(-c2ccccc2)ccc1C(C)C#Cc1c(C)nc(N)nc1N (centres undefined)", "0.34 µM"],
  ["CCc1nc(N)nc(N)c1C#CC(C)c1ccc(-c2ccc(C)cc2)cc1OC (centres undefined)", "0.208 µM"],
  ["CCc1nc(N)nc(N)c1C#CC(C)c1ccc(-c2ccncc2)cc1OC (centres undefined)", "0.127 µM"]
]}
